The values you see were collected from PubChem BioAssay (NCI).

System: ACHN renal
Assay: NCI-60 one-dose screen, 48 h (100 = growth as untreated, 0 = no growth, -100 = all killed)
Details: 10 µM unless noted
Compounds without any hit were thinned out: in the full panel of roughly 83,000, 20% have a hit.
measured_parameter: growth (%)
Give bare numbers, in %.

Answered cases to consult:
[
  {
    "test_smiles": "COc1cc(-c2nc(N=Nc3c(O)[nH]c4ccc(Br)cc34)[nH]c(=O)c2C#N)cc(OC)c1OC",
    "observed_result": 101
  },
  {
    "test_smiles": "CCOc1cc2c(Cl)ncnc2c(OCC)c1OCC",
    "observed_result": 60.1
  },
  {
    "test_smiles": "Cc1cc(N/N=C/c2nc(-c3ccc(Br)cc3)oc2C)c2cc(Br)ccc2n1",
    "observed_result": 64.9
  },
  {
    "test_smiles": "N=C(N)c1ccc(-c2ccc(-c3ccc(-c4cccs4)s3)s2)cc1",
    "observed_result": 102
  }
]

# batch: return growth for each of the 2 compounds below
1. Cc1nn(-c2ccc([N+](=O)[O-])cc2)c2ncnc(NCCc3ccccc3)c12
2. Nc1nnc(-c2ccc3ccccc3c2O)o1

1. 99.8
2. 91.7

* * *

Tested on: HCT-116 colon
Experiment: NCI-60 one-dose screen, 48 h (100 = growth as untreated, 0 = no growth, -100 = all killed)
Settings: 10 µM unless noted
The panel holds about 83,000 compounds, 20% with a hit somewhere; the sample as a whole holds those more often.
// Criterion not met strictly below 50% in growth; Criterion met otherwise

Recorded results for 5 molecules are shown here.
[
  {
    "molecule": "COc1cc(-c2nn(-c3cccc(NC(=O)c4ccc(Cl)c(C(F)(F)F)c4)c3)cc2-c2ccncc2)ccc1Cl",
    "assigned_label": "Criterion not met"
  },
  {
    "molecule": "COc1cccc(/C=C2\\Oc3cc(OCCCN4CCCC4)ccc3C2=O)c1OC",
    "assigned_label": "Criterion met"
  },
  {
    "molecule": "COc1ccc(-c2ccc(-c3ccc(C(=N)N)s3)s2)cc1Cl",
    "assigned_label": "Criterion not met"
  },
  {
    "molecule": "O=C(CN1CCN(c2cc3c(cc2F)c(=O)c(C(=O)N/N=C/c2ccccc2O)cn3C2CC2)CC1)N/N=C\\c1ccccc1O",
    "assigned_label": "Criterion not met"
  },
  {
    "molecule": "COc1cccc(CC(C)=C(c2ccc(OCCN3CCCCC3)cc2)c2ccc(OCCN3CCCCC3)cc2)c1",
    "assigned_label": "Criterion not met"
  }
]

# bool: growth of CCCCC(CC)OC(=O)C(Br)CC (configuration not stated) >= 50%
Criterion met

# bool: growth of CCN(CC)c1ccc(/C=C2\Oc3ccc(O)c(I)c3C2=O)cc1 >= 50%
Criterion not met

# bool: growth of N[C@@H]1CCN(C(=O)c2cc3cc(Cl)c(F)c(F)c3[nH]2)C1 >= 50%
Criterion met

# bool: growth of COc1ccc(-c2ccc(-c3ccc(C(=N)N)cn3)s2)cc1OC >= 50%
Criterion met

# bool: growth of O=C(c1ccccc1)C1OC1c1ccc([N+](=O)[O-])cc1 (configuration not stated) >= 50%
Criterion not met

# bool: growth of COc1ccc(NC(=O)CSc2nc(-c3ccc(OC)c(OC)c3)cc(-c3cc(OC)c(OC)c(OC)c3)n2)cc1 >= 50%
Criterion met

* * *

Consider the following compounds; for each one, report its growth.
Test system: UACC-62 melanoma
Assay: NCI-60 one-dose screen, 48 h (100 = growth as untreated, 0 = no growth, -100 = all killed)
Settings: 10 µM unless noted
About 83,000 compounds went through this panel and 20% of them were active in at least one assay; those are over-represented in the sample as a whole.
Give bare numbers, in %.

[
  {
    "compound": "CN1C(=O)N(C)C2C1NN=c1s/c(=C\\c3cccnc3)c(=O)n12 (stereo not given)",
    "tested_on": "UACC-62 melanoma",
    "measured_parameter": "growth",
    "observed_result": 68.6
  },
  {
    "compound": "COc1ccc(CNCCCN2C(=O)c3ccc4c5c(ccc(c35)C2=O)C(=O)N(CCCNCCCCNCCCN)C4=O)c(OC)c1OC",
    "tested_on": "UACC-62 melanoma",
    "measured_parameter": "growth",
    "observed_result": 1.36
  },
  {
    "compound": "CC12CCC3C4(C)COC(c5ccccc5Cl)OC4CCC3(C)C1CC(C1=CCOC1=O)O2 (stereo not given)",
    "tested_on": "UACC-62 melanoma",
    "measured_parameter": "growth",
    "observed_result": 45.8
  },
  {
    "compound": "O=C1/C(=C/c2ccccc2)Oc2ccc(O)c(I)c21",
    "tested_on": "UACC-62 melanoma",
    "measured_parameter": "growth",
    "observed_result": 86.1
  },
  {
    "compound": "COc1cc(Nc2nc(N[C@H]3CCCC[C@@H]3N)nc3cc[nH]c(=O)c23)cc(OC)c1",
    "tested_on": "UACC-62 melanoma",
    "measured_parameter": "growth",
    "observed_result": 41.2
  },
  {
    "compound": "COc1cc(/C(C#N)=C/c2ccc3c(c2OC)OCO3)cc2c1OCO2",
    "tested_on": "UACC-62 melanoma",
    "measured_parameter": "growth",
    "observed_result": 18.5
  },
  {
    "compound": "CCOC(=O)c1ccc2c(c1)c1c(C)c3cccnc3c(C)c1n2C",
    "tested_on": "UACC-62 melanoma",
    "measured_parameter": "growth",
    "observed_result": 49.2
  },
  {
    "compound": "Cc1nc2ncccc2nc1Nc1ccc(S(=O)(=O)Nc2ccccn2)cc1",
    "tested_on": "UACC-62 melanoma",
    "measured_parameter": "growth",
    "observed_result": 89.4
  },
  {
    "compound": "CC(=O)c1cc2c(N)c(C(=O)Nc3cccc4c3OCCO4)sc2nc1C",
    "tested_on": "UACC-62 melanoma",
    "measured_parameter": "growth",
    "observed_result": 67.8
  }
]

Lab note: next compound to report on.
Enter growth (test system UACC-62 melanoma) for COc1ccc(-c2c(N)n[nH]c2-c2cc(OC)c(OC)c(OC)c2)cc1
25.7

* * *

System: SK-OV-3 ovarian
Assay: NCI-60 one-dose screen, 48 h (100 = growth as untreated, 0 = no growth, -100 = all killed)
Conditions: 10 µM unless noted
Experimental: Growth inhibition of the SK-OV-3 human tumor cell line is measured as a screen for anti-cancer activity. Cells are grown in 96 well plates and exposed to the test compound for 48 hours. Compounds are tested at a single concentration, which is 10^-5 M for most compounds. The reported endpoint is percent growth (GI% or GIPRCNT), where numbers from 0 - 100% represent growth inhibition, and numbers from -100% - 0 represent cell death. For example, a value of 40 represents 60% growth inhibition. […]
Compounds without any hit were thinned out: in the full panel of roughly 83,000, 20% have a hit.
measured_parameter: growth (%)
Numbers only, in %.

Answered cases to consult:
[
  {
    "compound": "C=C1C(=O)O[C@H]2[C@H]1CC/C(Cn1cc(CNC(=O)/C=C/c3c[nH]c4ccccc34)nn1)=C\\CC[C@@]1(C)O[C@@H]21",
    "tested_on": "SK-OV-3 ovarian",
    "measured_parameter": "growth",
    "observed_result": 103
  },
  {
    "compound": "CN(C)c1nc2c(N)ncnc2n1C1OC(CO)C(O)C1O (stereo not given)",
    "tested_on": "SK-OV-3 ovarian",
    "measured_parameter": "growth",
    "observed_result": 116
  },
  {
    "compound": "Nc1cc2c([nH]c[n+]2CC#CCCl)c(SCC#CCCl)n1",
    "tested_on": "SK-OV-3 ovarian",
    "measured_parameter": "growth",
    "observed_result": -21.7
  },
  {
    "compound": "COc1cc(C2C3=C(COC3=O)Nc3cc4c(cc32)CCC4)cc2c1OCO2 (stereo not given)",
    "tested_on": "SK-OV-3 ovarian",
    "measured_parameter": "growth",
    "observed_result": 17.4
  },
  {
    "compound": "Cn1cnc2c(N3CCN(C(=O)OCc4ccc5c(Cl)cc(Cl)c(O)c5n4)CC3)nc(Cl)nc21",
    "tested_on": "SK-OV-3 ovarian",
    "measured_parameter": "growth",
    "observed_result": 97.6
  }
]

# batch: return growth for each of the 5 compounds below
1. Cc1cccc(/C=N/Nc2cc(C)c3cccc(C)c3n2)n1
2. C=C1CC2(OC1=O)C(=O)N(CCCN1C(=O)C3(CC(=C)C(=O)O3)c3ccccc31)c1ccccc12 (stereo not given)
3. COc1ccc(-c2ccc(C)n2-c2ccc(-c3nc4ccccc4s3)cc2)cc1
4. COc1ccc2c(c1)[nH]c(=O)c1c3cccc(F)c3cn21
5. O=C1Nc2ccc3c(c2/C1=C\c1cc2c(cc1Br)OCO2)OCO3

1: 115; 2: 111; 3: 80.3; 4: 42.3; 5: 2.7
